Entry source: patent US20160039945A1

ASSAYED SYSTEM: T1, human proprotein convertase subtilisin kexin type 9 (self-cleaved, mature, secreted PCSK9) (human, UniProt Q8NBP7 31-692)
T1 construct: Self-cleavage means the pro-domain and the catalytic/C-terminal part are separate, associated polypeptides; also called huPCSK9; wild-type PCSK9
T1 sequence (Q8NBP7 other isoform, or with tags, fused parts or gaps): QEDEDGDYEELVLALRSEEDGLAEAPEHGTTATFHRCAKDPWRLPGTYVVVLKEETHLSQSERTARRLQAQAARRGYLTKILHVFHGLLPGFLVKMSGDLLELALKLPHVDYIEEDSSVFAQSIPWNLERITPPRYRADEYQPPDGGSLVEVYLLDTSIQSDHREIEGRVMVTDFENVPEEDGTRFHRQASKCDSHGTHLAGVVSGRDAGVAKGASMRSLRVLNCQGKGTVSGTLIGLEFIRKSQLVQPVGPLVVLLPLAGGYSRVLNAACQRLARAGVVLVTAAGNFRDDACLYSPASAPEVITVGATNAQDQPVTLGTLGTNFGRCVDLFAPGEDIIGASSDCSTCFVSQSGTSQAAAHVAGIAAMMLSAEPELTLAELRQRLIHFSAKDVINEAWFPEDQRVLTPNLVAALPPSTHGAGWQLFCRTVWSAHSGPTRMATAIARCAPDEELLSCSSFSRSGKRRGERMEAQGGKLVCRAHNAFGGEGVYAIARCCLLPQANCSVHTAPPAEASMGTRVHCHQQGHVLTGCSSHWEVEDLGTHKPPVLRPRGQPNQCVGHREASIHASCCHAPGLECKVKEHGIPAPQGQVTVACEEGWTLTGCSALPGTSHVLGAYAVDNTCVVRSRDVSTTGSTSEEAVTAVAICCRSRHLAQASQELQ
EXPERIMENT DESCRIPTION: ELISA, hybridoma supernatant on neutravidin-captured biotinylated PCSK9
REPORTED PROPERTY: Early primary screen OD

Provide Early primary screen OD for all items below, preserving their order.
1. 103B7 (antibody, human IgG2, lambda, V domains shown, Fully human XenoMouse antibody; also called L2/H2; VL2/VH1) VH: QVQLVQSGAEVKKPGASVKVSCKASGYTFSSYGISWVRQAPGQGLEWMGWISAYNGNTNYAQKFQGRVTMTTDTSTSTAYMELRSLRSDDTAVYYCAREVRLAARPDHYYGMDVWGQGTTVTVSS VL: QSVLTQPPSVSAAPGQKVTISCSGSSSNIGINYVSWYQLLPGTAPKLLIYDNNKRPLGIPDRFSGSKSGTSVTLGITGLQTGDEADYFCGTWDSNLSAWVFGGGTKLTVLG
2. 101F7 (antibody, human IgG2, lambda, V domains shown, Fully human XenoMouse antibody; also called L1/H1; VL1/VH1) VH: QVQLVQSGAEVKKPGASVKVSCKASGYTFSSYGISWVRQAPGQGLEWMGWISAYNGNTNYAQKFQGRVTMTTDTSTSTAYMELRSLRSDDTAVYYCAREVRLAARPDHYYGMDVWGQGTTVTVSS VL: QSVLTQPPSVSAAPGQKVTISCSGSSSNIGINYVSWYQLLPGTAPKLLIYDNNKRPLGIPDRFSGSKSGTSATLGITGLQTGDETDYYCGTWDSSLSAWVFGGGTKLTVLG
3. 27B2 (antibody, human IgG2, lambda, V domains shown, Fully human XenoMouse antibody; Tested as hybridoma supernatant, the VH ends '...TTVTV' without the final 'SS'; also called 27B2.6; L4/H4) VH: QVQLVESGGGVVQPGRSLRLSCAASGFTFSSYGMHWVRQAPGKGLEWVAAIWYDGSNKYYAESVKGRFTISRDNSKYTLYLQVNSLRAEDTAVYYCARRGGLAARPGGLDVWGQGTTVTVAS VL: SYELTQPPSVSVSPGQTISISCSGDKLGDKNACWYQQKPGQSPGLVIYQDSKRPLGIPARFSGSNSGNTATLTISGTQAMDEADYYCQAWDISTVVFGGGTKLTVLG
4. 131D12 (antibody, human IgG2, lambda, V domains shown, Fully human XenoMouse antibody; also called L3/H3; VL3/VH2) VH: QGQLVESGGGVVQPGRSLRLSCAASGFTFSSYGMHWVRQAPGKGLEWVAVIWHDGSNKYYADSVKGRFTISRDNSKNTLYLQMNSLRAEDTAVYYCARVVPDNWNQDYYGMDVWGQGTTVTVSS VL: SYELTQPPSVSVSPGQTASITCSGDKLGDKYACWFQQKPGQSPVLVIYQDSKRPFGIPDRFSGSKSGNTATLTISGTQAMEEADYYCQAWDSSTAVFGGGTKLTVLG

## Output
1: 4.03 OD (450 nm); 2: 3.45 OD (450 nm); 3: 4.9 OD (450 nm); 4: 3.3 OD (450 nm)
